Origin of values: the RNAGym collection of RNA variant scans (doi:10.1126/science.aae0568)

B1: tRNA (parent)
chain: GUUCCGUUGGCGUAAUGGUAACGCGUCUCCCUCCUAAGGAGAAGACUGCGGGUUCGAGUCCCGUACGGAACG

Variants of: B1
Assay: yeast fitness relative to wild type (ratio to wild type); higher = fitter; tRNA-Arg(CCU), competitive growth, 37 C, YPD
This sample holds only a part of the variants without activity.
yeast fitness listing for selected variants.
Readout Label: yeast fitness

>>> reading("C4U C24A A57G G68C")
"≤ 0.5"
>>> reading("U8C U47C U59A A70G")
"≤ 0.5"
>>> reading("U47C A65C C66G")
"≤ 0.5"
>>> reading("U2C U7A A37G A42U G48C C55U C66G")
"≤ 0.5"
>>> reading("C22A G41C A65C")
"≤ 0.5"
>>> reading("A20G A42C A45C")
"≤ 0.5"
>>> reading("C11U U28A G58C A70C")
"≤ 0.5"
>>> reading("G6A C22G C24U U47A A70C")
"≤ 0.5"
>>> reading("C27G C34U A43C A57U G58A C62G")
"≤ 0.5"
>>> reading("C24U C29G C31U U64A")
"≤ 0.5"
>>> reading("G48C G63C A70C")
"≤ 0.5"
>>> reading("G23A C30U U35C G67U A69C")
"≤ 0.5"
>>> reading("G18A A40G C62A A65U C66U")
"≤ 0.5"
>>> reading("A14U C34G C66U")
"≤ 0.5"
>>> reading("C11G U19A C31U A43G G52C")
"≤ 0.5"
>>> reading("C27G A42G A57G U59G")
"≤ 0.5"
>>> reading("G6C C22U C24G C27U C29A C30U C31G G58A")
"≤ 0.5"
>>> reading("U3A U13C C49G")
"≤ 0.5"
>>> reading("G17C U54A G56C")
"≤ 0.5"
>>> reading("C31G A37C C60U")
"≤ 0.5"
>>> reading("G10C C55U")
"≤ 0.5"
>>> reading("C5A U28G A42U")
"≤ 0.5"
>>> reading("U16C A20U C24U A65U")
"≤ 0.5"
>>> reading("U16C U32C C49A")
0.617
>>> reading("A15G G58C C62G")
"≤ 0.5"
>>> reading("U16C G52C A70G")
"≤ 0.5"
>>> reading("C22U U26A G67C")
"≤ 0.5"
>>> reading("A21C G25C")
0.896
>>> reading("G25C A57U")
0.659
>>> reading("A42G A57C")
0.7
>>> reading("A20U A21U")
0.61
>>> reading("C5A U16A U35C A45G G50A")
"≤ 0.5"
>>> reading("U3A G23A U32A")
"≤ 0.5"
>>> reading("G25C C27A")
0.678
>>> reading("C29A C33G")
0.616
>>> reading("G63A A69G")
0.878
>>> reading("U8C C22A A36C C55G A65G C66G")
"≤ 0.5"
>>> reading("U19A C22G C24U C33G")
0.674
>>> reading("A21U U28G G56A")
"≤ 0.5"
>>> reading("U2G C4A C22U U28G A42U C49A")
"≤ 0.5"
>>> reading("U54G A69U")
0.648
>>> reading("U8C C49G")
1.01
>>> reading("C4G C5U U8A G12A G48A")
"≤ 0.5"
>>> reading("C4U C11A G12A U28C G44C")
"≤ 0.5"
>>> reading("G18A U19A C27U G67A")
"≤ 0.5"
>>> reading("U19G G38A G50A")
"≤ 0.5"
>>> reading("C5G C27U A57U")
"≤ 0.5"
>>> reading("G10C G25A")
0.691
>>> reading("A14U U26G C49G")
"≤ 0.5"
>>> reading("C24U C46A A69G")
0.996
>>> reading("A45C G48A A70U")
0.654
>>> reading("C22U C30U A37G")
0.526
>>> reading("C4A G10A C31A")
"≤ 0.5"
>>> reading("U8C A21U")
0.802
>>> reading("U19C C33A A36C C55U")
"≤ 0.5"
>>> reading("A14C C31U A69U")
"≤ 0.5"
>>> reading("G25A C30A")
0.836
>>> reading("U13A G52A")
0.643
>>> reading("C24U U54G")
0.577
>>> reading("C31U G41U G63A")
0.721
>>> reading("G18C U26A")
0.609
>>> reading("C5A A37C C46U A65C")
"≤ 0.5"
>>> reading("U2A A21C C29U G56C")
"≤ 0.5"
>>> reading("G10C G12A A36G C46A U47A")
"≤ 0.5"
>>> reading("C49A C60A")
0.52
>>> reading("U2A C34G")
0.604
>>> reading("A20U C29U C49G C55A G68C")
"≤ 0.5"
>>> reading("U8A G10C C11U C24U A42C U47C G68C")
"≤ 0.5"
>>> reading("G6C C30A A45G C55G A57U C62G U64C")
"≤ 0.5"
>>> reading("A14C G67A")
0.695
>>> reading("C5A C33U G67A")
0.593
>>> reading("C11A G18A G58A U64C")
"≤ 0.5"
>>> reading("C5A C30U G68U")
0.567
>>> reading("C27U G50C")
0.618
>>> reading("G6A G17A G38C")
0.708
